Organism: Rattus norvegicus
Test: Concentration required to inhibit [3H]- NE(norepinephrine) uptake in to rat cortical synaptosomes
Format: functional
Parameters: scale not given: the % may be the effect or the level left
Settings: Brain

QUERY SMILES: Cn1nc(-c2cccc(F)c2)n(C)c1=S
VALUE UNIT: %
Control: 110
--
QUERY SMILES: Cn1nc(-c2c(F)cccc2F)n(C)c1=S
VALUE UNIT: %
Control: 105
--
QUERY SMILES: Cn1nc(-c2ccc(F)cc2)n(C)c1=S
VALUE UNIT: %
Control: 104
--
QUERY SMILES: Cn1nc(-c2ccc(Cl)cc2)n(C)c1=S
VALUE UNIT: %
Control: 90
--
QUERY SMILES: CNCCCN1c2ccccc2CCc2ccccc21
VALUE UNIT: %
Control: 37

Values from ChEMBL document CHEMBL1124139
